experimental-details: Single dose oral pharmacokinetic study in mice
Type: in vivo
assay-setup: Oral PK @ 30 mg/ kg dose in mice (Table 6)
quantity: Tlast (h)
Please state the figure in h; there is no need to write the unit.

# Tlast lookup, item [2H]C([2H])([2H])C(CC(=O)O[C@H]1CC[C@]2(C)[C@H]3CC[C@@H]4[C@H]5[C@H](C6(C)CC6)CC[C@]5(C(=O)N[C@@H]5C[C@H](C(=O)N6CCCCC6)C5(C)C)CC[C@@]4(C)[C@]3(C)CC[C@H]2C1(C)C)(C(=O)O)C([2H])([2H])[2H] 24

Another compound: CCN1CCN(C(=O)[C@]23CC[C@@H](C4(C)CC4)[C@@H]2[C@H]2CC[C@@H]4[C@@]5(C)CC[C@H](OC(=O)CC(C)(C)CC(=O)O)C(C)(C)[C@@H]5CC[C@@]4(C)[C@]2(C)CC3)CC1 24

How about this compound: CC(C)(CC(=O)O[C@H]1CC[C@]2(C)[C@H]3CC[C@@H]4[C@H]5[C@H](C6(C)CC6)CC[C@]5(C(=O)N5CCC(C(=O)NCCN6CCOCC6)CC5)CC[C@@]4(C)[C@]3(C)CC[C@H]2C1(C)C)C(=O)O 48

Try the compound CC1([C@@H]2CC[C@]3(C(=O)N4CCN(CCCN5CCOCC5)CC4)CC[C@]4(C)[C@H](CC[C@@H]5[C@@]6(C)CC[C@H](OC(=O)[C@H]7C[C@@H](C(=O)O)C7(C)C)C(C)(C)[C@@H]6CC[C@]54C)[C@@H]23)CC1 48

Can you handle COCCOCCN1CCN(C(=O)[C@]23CC[C@@H](C4(C)CC4)[C@@H]2[C@H]2CC[C@@H]4[C@@]5(C)CC[C@H](OC(=O)[C@H]6C[C@@H](C(=O)O)C6(C)C)C(C)(C)[C@@H]5CC[C@@]4(C)[C@]2(C)CC3)CC1 next? 48

CC1([C@@H]2CC[C@]3(C(=O)N4CCC(C(=O)NCCN5CCOCC5)CC4)CC[C@]4(C)[C@H](CC[C@@H]5[C@@]6(C)CC[C@H](OC(=O)[C@H]7C[C@@H](C(=O)O)C7(C)C)C(C)(C)[C@@H]6CC[C@]54C)[C@@H]23)CC1 , same question. 48

Cool, now [2H]C([2H])([2H])C(CC(=O)O[C@H]1CC[C@]2(C)[C@H]3CC[C@@H]4[C@H]5[C@H](C6(C)CC6)CC[C@]5(C(=O)N5CCN(CC)CC5)CC[C@@]4(C)[C@]3(C)CC[C@H]2C1(C)C)(C(=O)O)C([2H])([2H])[2H] 48

Request: CC1([C@@H]2CC[C@]3(C(=O)N[C@@H]4C[C@H](C(=O)N5CCCCC5)C4(C)C)CC[C@]4(C)[C@H](CC[C@@H]5[C@@]6(C)CC[C@H](OC(=O)[C@H]7C[C@@H](C(=O)O)C7(C)C)C(C)(C)[C@@H]6CC[C@]54C)[C@@H]23)CC1 48

Would you kindly repeat that for COCCOC1CCN(C(=O)[C@]23CC[C@@H](C4(C)CC4)[C@@H]2[C@H]2CC[C@@H]4[C@@]5(C)CC[C@H](OC(=O)CC(C)(C)C(=O)O)C(C)(C)[C@@H]5CC[C@@]4(C)[C@]2(C)CC3)CC1 ? 48

Param item: CC(C)(CC(=O)O[C@H]1CC[C@]2(C)[C@H]3CC[C@@H]4[C@H]5[C@H](C6(C)CC6)CC[C@]5(C(=O)N5CCOCC5)CC[C@@]4(C)[C@]3(C)CC[C@H]2C1(C)C)C(=O)O 48

Similarly, [2H]C([2H])([2H])C(CC(=O)O[C@H]1CC[C@]2(C)[C@H]3CC[C@@H]4[C@H]5[C@H](C(=C)C)CC[C@]5(C(=O)N5CCN(CC)CC5)CC[C@@]4(C)[C@]3(C)CC[C@H]2C1(C)C)(C(=O)O)C([2H])([2H])[2H] ? 48

Would you kindly repeat that for COC1CCN(C(=O)[C@]23CC[C@@H](C4(C)CC4)[C@@H]2[C@H]2CC[C@@H]4[C@@]5(C)CC[C@H](OC(=O)[C@H]6C[C@@H](C(=O)O)C6(C)C)C(C)(C)[C@@H]5CC[C@@]4(C)[C@]2(C)CC3)CC1 ? 48

The values you see were collected from patent US20150119373A1.
